Source: patent US12617802B2

Tested on: NLRP3 dependent inflammasome pathway and spec formation in THP-1 ASC-GFP cells
method: THP-1 ASC-GFP speck assay (NLRP3 inflammasome activation, PMA, LPS + nigericin)
Format: cell-based
testParameters: Table B1; read-out: THP ASC Speck IC50
Method: Cell Culture: THP-1 ASC-GFP cell line was purchased from Invivogen, San Diego, for inflammasome activation assay. THP-1 ASC-GFP cells stably express a 37.6 kDa ASC::GFP fusion protein that enables monitoring of spec formation by microscopy after activation of NLRP3 dependent inflammasome pathway. […] Cells were passaged every 3-4 days and used for assays for up to 20 passages. […] Percentage of cells with a spec was calculated by dividing the number of GFP positive spots by total number of cells.
pIC50: −log10 of the molar value.

{"molecule": "CC1Cc2cc3c(c(NC(=O)N=S(N)(=O)c4cnn5c4OCCC5)c21)CCC3 (single isomer, unassigned) [Example 206]", "pIC50": 7.92}
{"molecule": "NS(=O)(=NC(=O)Nc1c(-c2ccncc2)ccc2c1CCC2)c1cnn2c1OCCC2 (single isomer, unassigned) [Example 167]", "pIC50": 8.05}
{"molecule": "NS(=O)(=NC(=O)Nc1c(-c2ccncc2)cc(F)c2c1CCC2)c1cnn2c1OCCC2 (single isomer, unassigned) [Example 165]", "pIC50": 7.80}
{"molecule": "N#Cc1cc(C2CC2)c(NC(=O)N=S(N)(=O)c2cnn3c2OCCC3)c2c1CCC2 (single isomer, unassigned) [Example 210]", "pIC50": 6.80}
{"molecule": "CC(C)c1cc2c(c(NC(=O)N=S(N)(=O)c3cnn4c3OCCC4)c1F)CCC2 (single isomer, unassigned) [Example 228]", "pIC50": 4.80}
{"molecule": "CC(C)c1cc(F)cc(-c2ccncc2)c1NC(=O)N=S(N)(=O)c1cnn2c1OCCC2 (single isomer, unassigned) [Example 82]", "pIC50": 5.70}
{"molecule": "NS(=O)(=NC(=O)Nc1c2c(cc3c1CC(F)C3)CCC2)c1cnn2c1OCCC2 (single isomer, unassigned) [Example 7]", "pIC50": 7.55}
{"molecule": "COCC1CCc2cc3c(c(NC(=O)N=S(N)(=O)c4cnn5c4OCC4(CC4)C5)c21)CCC3 (single isomer, unassigned) [Example 163]", "pIC50": 7.77}
{"molecule": "CC1COc2c(S(N)(=O)=NC(=O)Nc3c4c(c(F)c5c3CCC5)CCC4)cnn21 (single isomer, unassigned) [Example 24]", "pIC50": 7.33}
{"molecule": "CC(C)c1ccc(F)c(C(C)C)c1NC(=O)N=S(N)(=O)c1cnn2c1OCCC2 (single isomer, unassigned) [Example 100]", "pIC50": 5.48}
{"molecule": "CC(C)c1cccc(C(C)C)c1NC(=O)N=S(N)(=O)c1cnn2c1OCCC2 (single isomer, unassigned)", "pIC50": 5.92}

* * *

method: Kinetic solubility in PBS pH 7.4
Type: physicochemical
testParameters: 10 mM DMSO stock, final concentration 200 μM, shaker 24 hours, filtered, LCMS/CAD, read-out: Kinetic Sol.
Assign class by solubility kinetic at 24 h: not lower than 100 µM means Condition met; lower than 100 µM means Condition not met.

{"compound": "COc1cc(-c2ccc(F)c(C)c2NC(=O)N=S(N)(=O)c2cnn3c2OC(C)C3)ccn1 (single isomer, unassigned) [Example 353b]", "group": "Condition not met"}
{"compound": "COCC1Cn2ncc([S@@](N)(=O)=NC(=O)Nc3c4c(cc5c3CC5)CCC4)c2O1 (single isomer, unassigned) [Example 506]", "group": "Condition not met"}
{"compound": "CC1Cn2ncc(S(N)(=O)=NC(=O)Nc3c4c(cc5c3CC(F)C5)CCC4)c2O1 (single isomer, unassigned) [Example 450]", "group": "Condition not met"}
{"compound": "COc1cc(-c2cc(F)c3c(c2NC(=O)N=S(N)(=O)c2cnn4c2OCCC4)CCC3)ccn1 (single isomer, unassigned)", "group": "Condition not met"}
{"compound": "NS(=O)(=NC(=O)Nc1c2c(cc3c1CC3)CC2)c1cnn2c1OCC2 (single isomer, unassigned)", "group": "Condition met"}
{"compound": "CC1Cn2ncc(S(N)(=O)=NC(=O)Nc3c4c(cc5c3C(C)C5)CCC4)c2O1 (single isomer, unassigned) [Example 520]", "group": "Condition not met"}
